From: PubChem BioAssay AID1662

experiment: kanamycin survival loss of SKKanGAS strain – BacTiter-Glo luminescence, streptokinase expression inhibitor project, primary screen (AID 1662);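 note: strain carries kanamycin resistance gene driven by streptokinase promoter and grows in 40 µg/ml kanamycin; loss of luminescence reflects streptokinase promoter inhibition or plain growth inhibition; 0% = median of DMSO wells and 100% = positive control at its reference dose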; details: S. pyogenes SKKanGAS, kanamycin growth, 6 h, at 7.5 µM, hits give high values
The whole screen tested about 300,000 compounds, of which about 4,000 (1.3%) were called active. This is one part of a sample in which actives are shown more often than they occur.

Molecule: CCc1ccc(NC(=O)CN2C(=O)COc3ccc(S(=O)(=O)N4CCCC4)cc32)cc1
inhibition / %: 2.1
//
Molecule: CSc1ccc(CN(C)CC(=O)NCc2ccc(F)cc2)cc1
inhibition / %: -18.5
//
Molecule: COc1ccc(CCNC(=O)C(=O)NCC2OCCN2S(=O)(=O)c2cccs2)cc1OC (stereo unspecified)
inhibition / %: -1.24
//
Molecule: COc1ccc(C2CC(c3ccc(C)cc3)Nc3ncnn32)cc1 (stereo unspecified)
inhibition / %: -7.13
//
Molecule: Cc1sc2nc(SCC(N)=O)n(C)c(=O)c2c1C
inhibition / %: -2.36
//
Molecule: C=CCn1c(SCC(=O)/C(C#N)=C(\C)N)nc2sc(C)c(C)c2c1=O
inhibition / %: 58.1
//
Molecule: FC(F)Oc1ccccc1C1CC(c2ccc(Br)s2)Nc2ncnn21 (stereo unspecified)
inhibition / %: 59.5
//
Molecule: O=S(=O)(NCC1CC1)c1ccc(F)c(Cl)c1
inhibition / %: -1.69
//
Molecule: Cc1ccccc1N1CCN(C2CCCN(C(=O)c3ocnc3C)C2)CC1 (stereo unspecified)
inhibition / %: -0.706
//
Molecule: CCOc1ccccc1NC(=O)C12CC3CC(C1)CC(c1ccc(C)cc1)(C3)C2
inhibition / %: 20.1
//
Molecule: CCCn1c(NC(=O)C23CC4CC(CC(O)(C4)C2)C3)nc2ccccc21
inhibition / %: 54.4

* * *

experiment: kanamycin survival loss of SKKanGAS strain – BacTiter-Glo luminescence, streptokinase expression inhibitor project, primary screen (AID 1662);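 note: strain carries kanamycin resistance gene driven by streptokinase promoter and grows in 40 µg/ml kanamycin; loss of luminescence reflects streptokinase promoter inhibition or plain growth inhibition; 0% = median of DMSO wells and 100% = positive control at its reference dose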; settings: S. pyogenes SKKanGAS, kanamycin growth, 6 h, at 7.5 µM, hits give high values
About 4,000 (1.3%) of roughly 300,000 compounds were called active. This is one part of a sample in which actives are shown more often than they occur.

Molecule: COc1ccc(N(C(=O)c2snc(C(N)=O)c2N)C(C(=O)NC2CCCC2)c2ccco2)cc1OC (stereo not given)
inhibition: 2.77% (inactive)
//
Molecule: CN(C)CCNc1ccc(-c2n[nH]c(=O)c3ccccc23)cc1[N+](=O)[O-]
inhibition: -10.2% (inactive)
//
Molecule: O=C(CCCCCn1c(=S)[nH]c2cc3c(cc2c1=O)OCO3)N1CCN(c2ccc(F)cc2)CC1
inhibition: 4.31% (inactive)
//
Molecule: Cc1ccc(C)c(N2CCN(C(=O)CCCCn3c(=O)[nH]c4ccccc4c3=O)CC2)c1
inhibition: 10.5% (inactive)
//
Molecule: Cc1ccc(C)c(N2CCN(C(=O)CCCCCn3c(=S)[nH]c4ccc(N5CCOCC5)cc4c3=O)CC2)c1
inhibition: 50.8% (active)

* * *

assay: kanamycin survival loss of SKKanGAS strain – BacTiter-Glo luminescence, streptokinase expression inhibitor project, primary screen (AID 1662);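 note: strain carries kanamycin resistance gene driven by streptokinase promoter and grows in 40 µg/ml kanamycin; loss of luminescence reflects streptokinase promoter inhibition or plain growth inhibition; 0% = median of DMSO wells and 100% = positive control at its reference dose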; conditions: S. pyogenes SKKanGAS, kanamycin growth, 6 h, at 7.5 µM, hits give high values
Out of some 300,000 compounds screened, about 4,000 (1.3%) were called active. This excerpt belongs to a sample that is enriched for actives.

Molecule: COc1ccc(C(CNC(=O)c2cccc(NS(=O)(=O)c3ccc(C)c(F)c3)c2)N2CCCC2)cc1 (stereo unspecified)
inhibition (%): -16
//
Molecule: CCc1c(O)cc2n(c1=O)-c1ccccc1C2(C)C
inhibition (%): 17.4
//
Molecule: Cc1ccc(CNC(=O)CCN2C(=O)[C@@H]3Cc4ccccc4CN3C2=O)cc1
inhibition (%): 4.22
//
Molecule: Cc1cc(-c2ccc(C)c(S(=O)(=O)NC(C)Cc3ccco3)c2)on1 (stereo unspecified)
inhibition (%): 2.44
//
Molecule: CN(C)CCN(Cc1ccccc1)S(=O)(=O)c1csc(C(N)=O)c1
inhibition (%): -1.24
//
Molecule: COc1ccc2nc(NC(=O)NC3CCCCC3)sc2c1
inhibition (%): -5.74

* * *

experiment: kanamycin survival loss of SKKanGAS strain – BacTiter-Glo luminescence, streptokinase expression inhibitor project, primary screen (AID 1662);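 note: strain carries kanamycin resistance gene driven by streptokinase promoter and grows in 40 µg/ml kanamycin; loss of luminescence reflects streptokinase promoter inhibition or plain growth inhibition; 0% = median of DMSO wells and 100% = positive control at its reference dose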; conditions: S. pyogenes SKKanGAS, kanamycin growth, 6 h, at 7.5 µM
The whole screen tested about 300,000 compounds, of which about 4,000 (1.3%) were called active.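 How the source made its calls: active means mean replicate score, as percent of positive control median, at least 50; inconclusive means mean below 50 but one replicate at or above 50; inactive means mean and every replicate below 50.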 Only a selection was taken, and actives are over-represented in it overall.
Possible outcomes: active, inactive

Compound: O=C(NC1CCCCC1)c1cc([N+](=O)[O-])ccc1N1CCOCC1
Answer Label: inactive
--
Compound: O=C(CN1C(=O)/C(=C\c2ccccc2F)SC1=S)Nc1nc2ccccc2s1
Answer Label: active
--
Compound: CN1CCC(CN)(N2CCN(c3ccccc3)CC2)CC1
Answer Label: inactive
--
Compound: COc1ccc2nc(Nc3nc4ccc(NC(C)=O)cc4s3)sc2c1
Answer Label: active
--
Compound: CCOC(=O)c1c(-c2ccccc2)oc2cc(Br)c(O)cc12
Answer Label: inactive
--
Compound: O=C(N/N=C/c1cc(Cl)cc([N+](=O)[O-])c1O)C(O)(c1ccccc1)c1ccccc1
Answer Label: active
--
Compound: Cc1cc(OC(C)C(=O)NC2CC(C)(C)NC(C)(C)C2)c2c(C)cc(=O)oc2c1 (stereo not drawn)
Answer Label: inactive
--
Compound: N#Cc1ccc(OCc2nnc(-c3ccc([N+](=O)[O-])cc3)o2)cc1
Answer Label: inactive
--
Compound: CN(C)/N=C/c1cc(Cl)cc([N+](=O)[O-])c1O
Answer Label: inactive
--
Compound: CN1CCN(c2cc3c(cc2F)c(=O)c(C(=O)O)cn3CCF)CC1
Answer Label: active
--
Compound: CS(=O)(=O)c1ccc(-c2nnn(CC(=O)Nc3ccc4c(c3)OCCO4)n2)cc1
Answer Label: inactive
--
Compound: CCOC(=O)C1(CCOc2ccccc2)CCN(Cc2cc(OC)cc(OC)c2)CC1
Answer Label: inactive
--
Compound: O=C(CN1C(=O)/C(=C/c2ccccc2F)Sc2ccccc21)NCc1cccnc1
Answer Label: inactive
--
Compound: CCOC(=O)/C(C#N)=C/c1cn(CCC(=O)O)nc1-c1ccc(Br)cc1
Answer Label: inactive
--
Compound: CCOC(=O)C1=C(CCc2ccccc2)NC(=O)NC1c1ccc2ccccc2c1 (stereo not drawn)
Answer Label: inactive
--
Compound: CCn1cc(C(=O)NCCO)c(=O)c2cc(F)c(N3CCN(C)CC3)cc21
Answer Label: inactive
--
Compound: Cc1nc(COc2cc3oc(=O)cc(C)c3cc2Cl)cs1
Answer Label: inactive
--
Compound: COc1ccc(S(=O)(=O)N2CCCCC2)cc1NC(=O)c1cc([N+](=O)[O-])ccc1N1CCOCC1
Answer Label: inactive
--
Compound: CC(=O)Nc1ccc(NS(=O)(=O)c2ccc3c(c2)NC(=O)CC(=O)N3)cc1
Answer Label: inactive
--
Compound: O=C(O)CCn1cc(/C=C/C(=O)c2ccc(Cl)cc2)c(-c2cccc(Br)c2)n1
Answer Label: active
--
Compound: O=C(c1cc2c(s1)CCC2)N1CCN(c2ccccc2)CC1
Answer Label: inactive
--
Compound: O=C(CSc1ccc(-c2ccccn2)nn1)Nc1ccccc1
Answer Label: inactive
--
Compound: CCOc1ccc2nc(NC(=O)c3cc([N+](=O)[O-])ccc3N3CCOCC3)sc2c1
Answer Label: active
--
Compound: CCCCCCCCCCCCC(NC(C)=O)(C(=O)OCC)C(=O)OCC
Answer Label: active
--
Compound: Cc1cccc(C(=O)Nc2ccccc2-c2nnn(CC(=O)Nc3ccc4c(c3)OCCO4)n2)c1
Answer Label: active
--
Compound: COc1ccc2nc(NC(=O)c3ccc(Br)s3)sc2c1
Answer Label: inactive
--
Compound: Cc1ccc(Nc2nc(-c3ccc(O)cc3O)cs2)nc1
Answer Label: inactive
--
Compound: CC1(C)Cc2c(sc(NC(=O)C(=O)NCC3CCCO3)c2C(=O)O)CO1 (stereo not drawn)
Answer Label: inactive
--
Compound: Cc1cccc([C@@H]2[C@@H]3C(=O)N(C)C(=O)[C@@H]3[C@@H]3C(=O)Nc4ccccc4C(=O)N23)c1
Answer Label: inactive
--
Compound: Cc1nc2nc(C)c(NS(=O)(=O)c3ccc(C(C)(C)C)cc3)c(=O)n2[nH]1
Answer Label: inactive
--
Compound: CCOC(=O)c1c(-c2ccccc2)oc2cc(Br)c(O)c(C=O)c12
Answer Label: active
--
Compound: CC(C)(C)c1cc2cccnc2n1Cc1cccc(F)c1
Answer Label: inactive
--
Compound: CCC(=O)c1ccc(OCC(=O)Nc2ccc3nc(C)sc3c2)cc1
Answer Label: inactive
--
Compound: O=C(Nc1ccc(Cl)cn1)Nc1cccs1
Answer Label: inactive
--
Compound: CCOc1ccc2nc(NC(=O)CSc3nc4c(c(=O)n(C)c(=O)n4C)n3CC)sc2c1
Answer Label: inactive
--
Compound: CCCC(CCC(=O)OC)(C(=O)OCC)c1csc(N)n1 (stereo not drawn)
Answer Label: inactive
--
Compound: CCCOc1ccc(C2NC(=O)NC(c3ccccc3)=C2C(C)=O)cc1OCC (stereo not drawn)
Answer Label: inactive
--
Compound: CCC(CC)c1nnc(NC(=O)C2CCN(C(=O)c3ccco3)CC2)s1
Answer Label: inactive
--
Compound: CCn1ccnc1CNC(=O)CC1C(=O)NCCN1CCCc1ccccc1 (stereo not drawn)
Answer Label: inactive
--
Compound: COc1ccc(Cl)cc1NC(=O)CN(C)Cc1ccc(OC)c(OC)c1
Answer Label: inactive
--
Compound: O=C(N/N=C/c1cc(Br)c(O)c([N+](=O)[O-])c1)C(O)(c1ccccc1)c1ccccc1
Answer Label: inactive
--
Compound: O=C(CN1C(=O)S/C(=C\c2ccccc2F)C1=O)NCCCn1ccnc1
Answer Label: inactive
--
Compound: O=S(=O)(c1cccc(C(F)(F)F)c1)N1CCN(c2cnccn2)CC1
Answer Label: inactive
